Test: 7-day oral gavage study, metabolic parameters, body weight and food consumption in CR SD rats
Format: in vivo, rat
Settings: 25 mg/kg
Experimental: Two groups (n=5) of CR SD rats (approximately 300 g) were treated with 2 dose levels of perfluorinated compounds (15 and 25 mg/kg/day body weight). Animals were administered test substances, dissolved in corn oil, by oral gavage, daily for 7 days. One group of 20 CR SD rays was also treated with vehicle (corn oil) alone. Body weight and food consumption were monitored daily. […] Plasma was analysed for triglycerides, cholesterol, and glucose, using kits purchased from Sigma. […]
QUANTITY_MEASURED: Plasma insulin, % of control values (%)

1. N.O=C(O)C(F)(F)C(F)(F)C(F)(F)C(F)(F)C(F)(F)C(F)(F)C(F)(F)F [APFO, Ammonium perfluorooctanoate]: 8.3
2. FC(F)(F)C(F)(F)C(F)(F)C(F)(F)C(F)(F)C(F)(F)C(F)(F)C(F)(F)F: 33.5
3. O=C(O)C(F)(F)C(F)(F)C(F)(F)C(F)(F)F: 33.9
4. COC(=O)C(F)(F)C(F)(F)C(F)(F)C(F)(F)C(F)(F)C(F)(F)C(F)(F)F [MPOA, Methyl perfluorooctanoate]: 15.6
5. O=C(O)C(F)(F)C(F)(F)C(F)(F)C(F)(F)C(F)(F)C(F)(F)C(F)(F)F: 30.74
